Target: KRAS-G12V antigen peptide (Homo sapiens, UniProt P01116, G12V)
Experiment: Emax and EC50 (functional avidity) of TCR MHC-II binding region mutants, Jurkat-NFAT-Luc with peptide-loaded SW620-DPB cells
Assay type: cell-based
Design: expressed in transfected cells; host or cells: SW620-DPB cells (SW620 expressing HLA-DPB1*03:01); the peptide is synthetic
Details: G12V antigen peptide 10 μg/ml, 10-fold dilution, 5 concentrations
Excerpt: In the above table, those with TCR Mut RLU/WT RLU ratio ≥80% were underlined, which were the preferred TCR mutants. The Emax and EC50 (Functional Avidity) of the TCR mutants to recognize the KRAS-G12V antigen peptide were further determined. […]
metric-name: Emax relative to WT (%)
Provide the reading as a plain figure in %.

Solved cases below.
>>> endpoint_result("β56Q-T (TCR) TCR alpha: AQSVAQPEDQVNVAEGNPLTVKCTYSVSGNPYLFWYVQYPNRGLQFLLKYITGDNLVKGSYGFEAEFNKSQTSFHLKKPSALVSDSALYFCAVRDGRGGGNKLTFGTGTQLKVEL TCR beta: GITQSPKYLFRKEGQNVTLSCEQNLNHDAMYWYRQDPGQGLRLIYYSQIVNDFTKGDIAEGYSVSREKKESFPLTVTSAQKNPTAFYLCASSPGQRDNSPLHFGNGTRLTVT")
131
>>> endpoint_result("α49K-S (TCR) TCR alpha: AQSVAQPEDQVNVAEGNPLTVKCTYSVSGNPYLFWYVQYPNRGLQFLLSYITGDNLVKGSYGFEAEFNKSQTSFHLKKPSALVSDSALYFCAVRDGRGGGNKLTFGTGTQLKVEL TCR beta: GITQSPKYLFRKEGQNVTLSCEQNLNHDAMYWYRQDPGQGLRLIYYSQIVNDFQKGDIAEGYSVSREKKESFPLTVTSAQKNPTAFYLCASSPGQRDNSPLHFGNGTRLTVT")
106
>>> endpoint_result("α49K-Y (TCR) TCR alpha: AQSVAQPEDQVNVAEGNPLTVKCTYSVSGNPYLFWYVQYPNRGLQFLLYYITGDNLVKGSYGFEAEFNKSQTSFHLKKPSALVSDSALYFCAVRDGRGGGNKLTFGTGTQLKVEL TCR beta: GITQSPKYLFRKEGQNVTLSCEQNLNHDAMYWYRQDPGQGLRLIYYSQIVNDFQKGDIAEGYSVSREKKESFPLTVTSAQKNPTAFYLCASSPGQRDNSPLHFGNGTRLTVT")
82
>>> endpoint_result("β50Q-N (TCR) TCR alpha: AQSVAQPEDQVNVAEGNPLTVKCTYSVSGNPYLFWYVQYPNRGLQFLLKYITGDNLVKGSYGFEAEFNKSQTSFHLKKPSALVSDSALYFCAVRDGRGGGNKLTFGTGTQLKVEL TCR beta: GITQSPKYLFRKEGQNVTLSCEQNLNHDAMYWYRQDPGQGLRLIYYSNIVNDFQKGDIAEGYSVSREKKESFPLTVTSAQKNPTAFYLCASSPGQRDNSPLHFGNGTRLTVT")
97
>>> endpoint_result("β56Q-L (TCR) TCR alpha: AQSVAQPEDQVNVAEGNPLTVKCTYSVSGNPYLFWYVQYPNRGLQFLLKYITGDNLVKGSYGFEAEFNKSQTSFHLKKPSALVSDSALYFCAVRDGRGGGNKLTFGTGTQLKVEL TCR beta: GITQSPKYLFRKEGQNVTLSCEQNLNHDAMYWYRQDPGQGLRLIYYSQIVNDFLKGDIAEGYSVSREKKESFPLTVTSAQKNPTAFYLCASSPGQRDNSPLHFGNGTRLTVT")
108

Name the recorded Emax relative to WT of the molecule listed here: α52T-H (TCR) TCR alpha: AQSVAQPEDQVNVAEGNPLTVKCTYSVSGNPYLFWYVQYPNRGLQFLLKYIHGDNLVKGSYGFEAEFNKSQTSFHLKKPSALVSDSALYFCAVRDGRGGGNKLTFGTGTQLKVEL TCR beta: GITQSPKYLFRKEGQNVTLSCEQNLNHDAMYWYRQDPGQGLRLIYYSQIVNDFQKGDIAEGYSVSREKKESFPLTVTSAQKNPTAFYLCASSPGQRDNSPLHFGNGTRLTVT
111

# return recorded Emax relative to WT for input α52T-I (TCR) TCR alpha: AQSVAQPEDQVNVAEGNPLTVKCTYSVSGNPYLFWYVQYPNRGLQFLLKYIIGDNLVKGSYGFEAEFNKSQTSFHLKKPSALVSDSALYFCAVRDGRGGGNKLTFGTGTQLKVEL TCR beta: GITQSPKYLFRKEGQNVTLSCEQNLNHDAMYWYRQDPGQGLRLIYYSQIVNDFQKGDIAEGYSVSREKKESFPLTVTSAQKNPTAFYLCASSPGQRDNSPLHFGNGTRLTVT
95

Given the molecule β56Q-W (TCR) TCR alpha: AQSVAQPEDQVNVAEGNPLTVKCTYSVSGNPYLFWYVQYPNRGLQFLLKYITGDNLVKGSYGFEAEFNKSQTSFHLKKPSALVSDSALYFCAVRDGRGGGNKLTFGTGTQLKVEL TCR beta: GITQSPKYLFRKEGQNVTLSCEQNLNHDAMYWYRQDPGQGLRLIYYSQIVNDFWKGDIAEGYSVSREKKESFPLTVTSAQKNPTAFYLCASSPGQRDNSPLHFGNGTRLTVT , write its reported Emax relative to WT.
53

Look up Emax relative to WT of β56Q-E (TCR) TCR alpha: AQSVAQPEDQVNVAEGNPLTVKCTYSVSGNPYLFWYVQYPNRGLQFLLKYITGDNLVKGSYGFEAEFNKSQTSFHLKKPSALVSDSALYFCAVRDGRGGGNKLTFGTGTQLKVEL TCR beta: GITQSPKYLFRKEGQNVTLSCEQNLNHDAMYWYRQDPGQGLRLIYYSQIVNDFEKGDIAEGYSVSREKKESFPLTVTSAQKNPTAFYLCASSPGQRDNSPLHFGNGTRLTVT and report it.
100

Using the record for β56Q-H (TCR) TCR alpha: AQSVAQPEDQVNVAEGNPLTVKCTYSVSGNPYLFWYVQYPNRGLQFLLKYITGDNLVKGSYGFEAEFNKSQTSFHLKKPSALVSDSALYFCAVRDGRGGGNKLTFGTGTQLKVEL TCR beta: GITQSPKYLFRKEGQNVTLSCEQNLNHDAMYWYRQDPGQGLRLIYYSQIVNDFHKGDIAEGYSVSREKKESFPLTVTSAQKNPTAFYLCASSPGQRDNSPLHFGNGTRLTVT , state its measured Emax relative to WT.
97
